# TARGET OF ASSAY: Cytochrome P450 2D6 (Homo sapiens)
# TEST NAME: Cytochrome panel assay with activity outcomes
# TEST CONTEXT: recombinant CYP, pro-luciferin dealkylation, luminescence, p450-cyp2d6; series mostly up to 57.1 µM
The whole screen tested about 16,000 compounds, of which about 2,600 (16%) were called active. Inconclusive results (about 20%) are left out. The call rests on the fitted dose curve; in most records, active means well fitted curve in the direction sought with a large enough effect; inconclusive means small, poorly fitted or top-dose-only effect, or effect the other way; inactive means no such curve, though single readings can be large or run the other way. Only a sample is shown.
Choose one outcome from this list and give only that: label 1 = active, label 0 = inactive

1. O=C(c1ccco1)N1CCC2(CCCN(Cc3ccccc3)C2)CC1 : label 0
2. CC1(C)Cc2c(sc3nc(SCC(=O)NCc4ccccc4)n(-c4ccccc4)c(=O)c23)CS1 : label 1
3. COc1ccc2[nH]cc(CCNc3ccnc(-c4ccc(N(C)C)cc4)n3)c2c1 : label 1
4. O=C(c1cccc(F)c1)N1CCC2(CCCN(Cc3ccncc3)C2)CC1 : label 1
5. CS(=O)(=O)N1CCN(c2c(Cl)cccc2[N+](=O)[O-])CC1 : label 0

Problem: So what was the verdict on `Cn1c2c(c(=O)n(C)c1=O)[C@@H]1c3c(ccc4ccccc34)OC[C@@H]1CO2` in this test?
Solution: label 0

Problem: So what was the verdict on `CC(C)OC(=O)CC12CN(C)CC(CC(=O)OC(C)C)(CN(C)C1)C2=O` in this test?
Solution: label 1

Problem: So what was the verdict on `Cc1ccc(OCCCC(=O)NCc2ccco2)cc1` in this test?
Solution: label 0

Problem: So what was the verdict on CC(=O)Nc1ccc(OCC(O)Cn2c3ccccc3c3ccccc32)c(C)c1 (stereo not drawn) in this test?
Solution: label 1

Problem: So what was the verdict on `COc1ccc(C(=O)N2CCC3(CCN(Cc4ccc(C#N)cc4)CC3)CC2)cc1` in this test?
Solution: label 0

Problem: So what was the verdict on `CCN[C@@H]1C[C@H](C)S(=O)(=O)c2sc(S(N)(=O)=O)cc21` in this test?
Solution: label 0

====

# TARGET OF ASSAY: Cytochrome P450 2D6 (Homo sapiens) (UniProt P10635)
# Sequence (P10635 whole entry, looked up): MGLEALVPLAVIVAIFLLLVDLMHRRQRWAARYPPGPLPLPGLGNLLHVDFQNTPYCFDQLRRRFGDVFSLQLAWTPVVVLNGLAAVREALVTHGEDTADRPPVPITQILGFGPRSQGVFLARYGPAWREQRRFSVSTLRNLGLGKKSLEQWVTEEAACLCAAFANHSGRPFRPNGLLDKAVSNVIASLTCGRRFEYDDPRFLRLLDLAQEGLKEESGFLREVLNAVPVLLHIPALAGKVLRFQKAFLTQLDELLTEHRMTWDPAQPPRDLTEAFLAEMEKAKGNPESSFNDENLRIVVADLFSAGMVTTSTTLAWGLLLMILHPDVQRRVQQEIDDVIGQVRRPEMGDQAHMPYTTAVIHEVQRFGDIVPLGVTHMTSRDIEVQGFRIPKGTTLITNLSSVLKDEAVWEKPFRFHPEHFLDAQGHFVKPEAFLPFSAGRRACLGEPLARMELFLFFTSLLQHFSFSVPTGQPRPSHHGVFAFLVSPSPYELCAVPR
# TEST NAME: Cytochrome panel assay with activity outcomes
# TEST CONTEXT: recombinant CYP, pro-luciferin dealkylation, luminescence, p450-cyp2d6; series mostly up to 57.1 µM
The whole screen tested about 16,000 compounds, of which about 2,600 (16%) were called active. Inconclusive results (about 20%) are left out. Calls come from the whole dose curve; as a rule, active = well fitted curve in the direction sought with a large enough effect; inconclusive = small, poorly fitted or top-dose-only effect, or effect the other way; inactive = no such curve, though single readings can be large or run the other way. The list is a sample of the results.
Choose one outcome from this list and give only that: active, inactive

Use the examples below as a reference point.
1) CN(C)c1ncc2nc(-c3ccccc3)c(=O)n(CCC#N)c2n1 : active
2) O=C1CC(=O)N(CCc2ccc(F)cc2)C(=O)N1 : inactive
3) CC(=O)[C@@H]1CC[C@@H]2[C@@H]3C[C@H](C)C4=CC(=O)CC[C@@]4(C)[C@H]3[C@H](O)C[C@]21C : inactive

Problem: So what was the verdict on `CN(C)c1ncc2nc(CCc3ccccc3)c(=O)n(CCC#N)c2n1` in this test?
Solution: active

Problem: So what was the verdict on `C/C(CC(=O)NC1CCCC1)=N\NC(=O)Cc1cccs1` in this test?
Solution: inactive

Problem: So what was the verdict on `CN(C)c1ncc2nc(-c3cc(F)cc(F)c3)c(=O)n(CCC#N)c2n1` in this test?
Solution: inactive

Problem: So what was the verdict on `CCCN(CCC)S(=O)(=O)c1ccc(C(=O)O)cc1` in this test?
Solution: inactive

Problem: So what was the verdict on `N#CCCn1c(=O)c(CCc2ccccc2)nc2cnc(Oc3ccccc3)nc21` in this test?
Solution: inactive

====

# TARGET OF ASSAY: Cytochrome P450 2D6 (Homo sapiens) (UniProt P10635)
# TEST NAME: Cytochrome panel assay with activity outcomes
# TEST CONTEXT: recombinant CYP, pro-luciferin dealkylation, luminescence, p450-cyp2d6; series mostly up to 57.1 µM
Hit rate of the full screen: of about 16,000 compounds, about 2,600 (16%) were called active. About 20% were inconclusive and are not listed. Calls follow the shape of the dose curve; as a rule, active = well fitted curve in the direction sought with a large enough effect; inconclusive = small, poorly fitted or top-dose-only effect, or effect the other way; inactive = no such curve, though single readings can be large or run the other way. These entries were drawn from the full list.
Choose one outcome from this list and give only that: class 1 (active), class 0 (inactive)

Problem: So what was the verdict on `COc1ccc(-c2ccc(=O)n(CC(=O)Nc3nnc(C(C)C)s3)n2)cc1OC` in this test?
Solution: class 0

Problem: So what was the verdict on COc1ccc(CN2C(=O)CN(C3CCCCCC3)C(=O)C2c2ccc(OC)c(OC)c2)cc1 (stereo unspecified) in this test?
Solution: class 0

Problem: So what was the verdict on `Cc1cc(C)c(S(=O)(=O)Nc2ccccc2C(F)(F)F)c(C)c1` in this test?
Solution: class 1

====

# TARGET OF ASSAY: Cytochrome P450 2D6 (Homo sapiens)
# TEST NAME: Cytochrome panel assay with activity outcomes
# TEST CONTEXT: recombinant CYP, pro-luciferin dealkylation, luminescence, p450-cyp2d6; series mostly up to 57.1 µM
About 2,600 (16%) of roughly 16,000 compounds were called active. About 20% were inconclusive and are not listed. Calls follow the shape of the dose curve; as a rule, active = well fitted curve in the direction sought with a large enough effect; inconclusive = small, poorly fitted or top-dose-only effect, or effect the other way; inactive = no such curve, though single readings can be large or run the other way. A selection follows.
Choose one outcome from this list and give only that: 1 (yes) = active, 0 (no) = inactive

Use the examples below as a reference point.
1. COc1ccc([N+](=O)[O-])cc1NC(=O)CC(C)c1ccccc1 (configuration not stated) : 1 (yes)
2. CCCCCCCCN[C@@H](C)[C@H](O)c1ccc(SC(C)C)cc1 : 1 (yes)
3. COc1ccc(NC(=O)COC(=O)Cn2c(C)nc3ccccc32)cc1OC : 0 (no)
4. Cc1noc(C)c1-c1ccc2ncnc(NCc3cccs3)c2c1 : 1 (yes)
5. O=C(CSc1ccc(C(F)(F)F)cc1[N+](=O)[O-])Nc1ccccc1 : 0 (no)
6. COc1ccc([N+](=O)[O-])cc1NC(=S)NC(NC(=O)Cc1ccc(OC)c(OC)c1)C(Cl)(Cl)Cl (configuration not stated) : 1 (yes)

Problem: So what was the verdict on `O=C(COc1ccc2ccccc2c1Br)NNC(=O)Nc1ccccc1` in this test?
Solution: 0 (no)

Problem: So what was the verdict on CC(CC(=O)Nc1ccc(Cl)c([N+](=O)[O-])c1)c1ccccc1 (configuration not stated) in this test?
Solution: 1 (yes)

Problem: So what was the verdict on `C=CCn1c(-c2cccn(Cc3ccccc3)c2=O)n[nH]c1=S` in this test?
Solution: 0 (no)

====

# TARGET OF ASSAY: Cytochrome P450 2D6 (Homo sapiens)
# TEST NAME: Cytochrome panel assay with activity outcomes
# TEST CONTEXT: recombinant CYP, pro-luciferin dealkylation, luminescence, p450-cyp2d6; series mostly up to 57.1 µM
Out of some 16,000 compounds screened, about 2,600 (16%) were called active. Roughly 20% stayed inconclusive and do not appear here. Calls follow the shape of the dose curve; as a rule, active = well fitted curve in the direction sought with a large enough effect; inconclusive = small, poorly fitted or top-dose-only effect, or effect the other way; inactive = no such curve, though single readings can be large or run the other way. Not all results are given here.
Choose one outcome from this list and give only that: Yes (active), No (inactive)

Use the examples below as a reference point.
1) CCCCCOC(=O)CSc1nnc(-c2ccccc2)c(=O)[nH]1 : No
2) O=C1CSC(c2ccccn2)N1c1ccc(Cl)c(Cl)c1 (stereo not drawn) : No
3) O=c1c(-c2cccc(Cl)c2)nc2cncnc2n1C1CC1 : No
4) Oc1c(Br)cc(Br)cc1CN(Cc1cc(Br)cc(Br)c1O)C1CCCCC1 : Yes

Problem: So what was the verdict on `O[C@H](CCCN1CCN(c2ncc(F)cn2)CC1)c1ccc(F)cc1` in this test?
Solution: No

Problem: So what was the verdict on `N[C@@H](C(=O)O)c1ccc(O)c(C(=O)O)c1` in this test?
Solution: No

Problem: So what was the verdict on `Cc1[nH]nc(-c2ccc(O)cc2O)c1-c1ccc(Cl)cc1` in this test?
Solution: Yes

Problem: So what was the verdict on `COc1ccc(-n2c(=O)c(-c3ccc(Cl)cc3)nc3cnc(N4CCNCC4)nc32)cc1` in this test?
Solution: No

====

# TARGET OF ASSAY: Cytochrome P450 2D6 (Homo sapiens) (UniProt P10635)
# TEST NAME: Cytochrome panel assay with activity outcomes
# TEST CONTEXT: recombinant CYP, pro-luciferin dealkylation, luminescence, p450-cyp2d6; series mostly up to 57.1 µM
Among all 16,000 compounds or so, about 2,600 (16%) were called active. About 20% were inconclusive and are not listed. The call rests on the fitted dose curve; in most records, active means well fitted curve in the direction sought with a large enough effect; inconclusive means small, poorly fitted or top-dose-only effect, or effect the other way; inactive means no such curve, though single readings can be large or run the other way. A selection follows.
Choose one outcome from this list and give only that: yes (1) = active, no (0) = inactive

1) Clc1ccc2c(c1)C=Nc1c(NCc3ccccc3)ncnc1O2 : no (0)
2) COc1ncc2nc(-c3cn(C)c4ccccc34)c(=O)n(C)c2n1 : no (0)
3) c1cncc(CNc2ncncc2-c2ccc3c(c2)OCO3)c1 : yes (1)
4) O=C1c2cccnc2C(O)N1C1CCCCC1 (centres undefined) : no (0)
5) COc1c(Cl)cc(Cl)cc1CNCCNCC(C)O (centres undefined) : yes (1)
6) c1csc(CNc2ncncc2-c2ccc3c(c2)OCO3)c1 : yes (1)
7) Cc1snc(SCC(=O)N/N=C(\N)COc2cccc(C(F)(F)F)c2)c1C#N : no (0)
8) O=c1c(-c2cccs2)nc2cncnc2n1-c1ccccc1 : no (0)
9) COc1cc(/C=C(/NC(=O)c2ccccc2Cl)C(=O)O)cc(OC)c1OC : no (0)
10) Oc1ccc(Cn2cc[nH]c2=S)cc1 : no (0)

Read the next record carefully.
Problem: So what was the verdict on `c1csc(CNc2cc(-c3ccoc3)ncn2)c1` in this test?
Solution: yes (1)
